Where do the numbers come from? From the NIST ThermoML archive (doi:10.1016/j.jct.2017.08.004).

- assay-name: molar heat capacity at constant pressure
- condition-info: 233.15 K; 101.33 kPa; Crystal; Small sample (50 mg) DSC
readout-kind: molar heat capacity at constant pressure (J/K/mol)

{"compound": "OC[C@@H](O)[C@@H](O)[C@H](O)[C@H](O)CO [D-mannitol]", "readout-kind": "molar heat capacity at constant pressure", "unit-tag": "J/K/mol", "quantitative-readout": 182.34}
{"compound": "OC[C@@H](O)[C@@H](O)CO [meso-1,2,3,4-butanetetrol]", "readout-kind": "molar heat capacity at constant pressure", "unit-tag": "J/K/mol", "quantitative-readout": 130.29}
{"compound": "OC[C@H](O)C(O)[C@@H](O)CO [L-(-)-arabitol]", "readout-kind": "molar heat capacity at constant pressure", "unit-tag": "J/K/mol", "quantitative-readout": 161.67}
{"compound": "OC[C@@H](O)[C@H](O)[C@@H](O)CO [xylitol]", "readout-kind": "molar heat capacity at constant pressure", "unit-tag": "J/K/mol", "quantitative-readout": 163.22}
{"compound": "O[C@H]1[C@H](O)[C@@H](O)[C@H](O)[C@@H](O)[C@H]1O [cis-1,2,3,5-trans-4,6-cyclohexanehexol]", "readout-kind": "molar heat capacity at constant pressure", "unit-tag": "J/K/mol", "quantitative-readout": 168.47}
{"compound": "OC[C@@H](O)C(O)[C@H](O)CO [D-arabitol]", "readout-kind": "molar heat capacity at constant pressure", "unit-tag": "J/K/mol", "quantitative-readout": 157.18}
